Numbers sourced from patent US5227508A.

- System: v-sis oncogene-expressing NIH 3T3 cells
- method-notes: Cell growth inhibition, v-sis oncogene-expressing NIH 3T3 cells, 3 days
- Type: cell-based
- assay-context: Mus musculus, NIH3T3, 72 h, + myo-inositol; 3 days; read-out: v-sis NIH IC50 (class symbol)
measure: IC50

[ask] Fill blank: measured IC50 of the compound O[C@@H]1[C@@H](O)[C@H](O)[C@@H](F)[C@@H](O)[C@H]1O [3-deoxy-3-fluoro-myo-inositol, reference compound] is ____.
[reply] > 33 mM

---

- Test system: NIH 3T3 cells (wild type)
- method-notes: Cell growth inhibition, wild type NIH 3T3 cells, 3 days
- Assay type: cell-based
- assay-context: Mus musculus, NIH3T3, 72 h, - myo-inositol; 3 days; ± S.E. of mean; read-out: NIH IC50
measure: IC50 (mM)
Numbers only, in mM.

CCCCCCCCCCCCCCCC(=O)OC[C@H](COP(=O)(O)O[C@H]1[C@H](O)[C@@H](O)[C@H](O)[C@@H](F)[C@H]1O)OC(=O)CCCCCCCCCCCCCCC	0.11

Here is another compound to look at.
[ask] # query: IC50 | item O[C@@H]1[C@@H](O)[C@H](O)[C@@H](F)[C@@H](O)[C@H]1O [3-deoxy-3-fluoro-myo-inositol, reference compound] | system: NIH 3T3 cells (wild type)
[reply] 7
